Test system: DU-145 prostate
Assay protocol: NCI tumour cell line growth inhibition, 48 h
Please go through the items and note down their TGI.

Below, each entry is followed by its recorded TGI result.
Compound	Assayed target	Value kind	Result value
COC(=O)c1c(C)[nH]c(/C=C2\N=C(c3ccc[nH]3)C=C2OC)c1C	DU-145 prostate	TGI	> 100 µM
Fc1ccc(-c2nn3ncccc3c2-c2ccnc(Nc3ccc4c(c3)OCCO4)n2)cc1	DU-145 prostate	TGI	> 25 µM
COc1cc2c(c(OC)c1OC)-c1c(cc3c(c1OC)OCO3)C1OC2C(C)C1C (centres undefined) (tested in a mixture with another compound)	DU-145 prostate	TGI	> 100 µM
COc1cc(/C=C2\N=C(c3ccccc3)N(c3nc4c(OC)ccc(OC)c4s3)C2=O)ccc1O	DU-145 prostate	TGI	> 100 µM
C=C[C@H]1C[C@@H]2C[C@@H]3[C@H]4C/C=C\C(=O)NCCCC5NC(=O)C(=C(O)/C=C/[C@@H]4CC(=O)[C@H]3[C@@H]2[C@H]1C)C5=O (some centres undefined)	DU-145 prostate	TGI	0.345 µM

Please give TGI for each item listed below.
1. Cc1nc2ccccc2n1C(=O)c1c(F)c(F)c(F)c(F)c1F
2. c1csc(-c2cc(-c3cccs3)c(-c3ccsc3)s2)c1
3. CC1(C)N=C(N)N=C(N)N1c1ccc(OCc2ccc(S(=O)(=O)F)c(Cl)c2)c(Cl)c1
4. COC(=O)C1C(=O)C=CN([C@H](C)c2ccccc2)[C@@H]1Cc1ccc(OC)c(OCc2ccccc2)c1I (some centres undefined)
5. O=C1N[C@@H](c2c[nH]c3cc(Br)ccc23)C(=O)N[C@H]1c1c[nH]c2cc(Br)ccc12
6. N#Cc1c(-c2ccccc2)cc(Nc2cccc(C(F)(F)F)c2)n2c1nc1ccccc12
7. Cc1ccc(NC(=O)c2cccc(OP(=O)(O)Nc3ccc(C)cc3)c2)cc1

// result
["76.5 µM", "> 100 µM", "> 100 µM", "42.6 µM", "> 100 µM", "19.7 µM", "> 100 µM"]

---

Test system: HCT-116 colon
Assay protocol: NCI tumour cell line growth inhibition, 48 h
Returns satisfied if the recorded TGI is greater than or equal to 20 µM, and not satisfied otherwise.

Answered examples (5):
Compound	Assigned class
CC(C)(C)c1ccc(O)c(CN(Cc2cc(C(C)(C)C)ccc2O)c2ccccc2)c1	satisfied
Cc1nc2ccccc2n1C(=O)c1c(F)c(F)c(F)c(F)c1F	satisfied
CCOC(=O)C(Cc1cn(S(=O)(=O)c2ccccc2)c2ccccc12)(NC(C)=O)C(=O)OCC	satisfied
C=C(C)C(=O)OC1CCC2(C)C(CCC3C2CCC2(C)C(c4ccc(=O)oc4)CC4OC432)C1 (configuration not stated)	not satisfied
CCCCCCCCCCN(CCCCCCCCCC)C(=O)COc1c2cc(C(C)(C)C)cc1Cc1cc(C(C)(C)C)cc(c1OCC(=O)N(CCCCCCCCCC)CCCCCCCCCC)Cc1cc(C(C)(C)C)cc(c1OCC(=O)N(CCCCCCCCCC)CCCCCCCCCC)Cc1cc(C(C)(C)C)cc(c1OCC(=O)N(CCCCCCCCCC)CCCCCCCCCC)C2	not satisfied

Field: next compound
// query Check the entry COc1cc2c3c(n(C)c(=O)c2cc1OC)-c1cc2c(cc1/C3=C\CNCCCN)OCO2 : does TGI equal or exceed 20 µM?
// result not satisfied

---

Tested on: HCC-2998 colon
Assay protocol: NCI tumour cell line growth inhibition, 48 h
Kindly supply the reported TGI values for the records listed here.

Record excerpt, results attached:
Compound	Result value
CS(=O)(=O)c1cc(=O)c2ccccc2s1	30.5 µM
CC1(C)N=C(N)N=C(N)N1c1ccc(OCc2ccc(S(=O)(=O)F)c(Cl)c2)c(Cl)c1	> 100 µM
c1ccc2c(c1)nc1n2CNC1	> 100 µM
Cc1ccc2c3c(c(=O)[nH]c2c1)C1(C(C#N)=C(N)O3)c2cc(Br)ccc2-c2ccc(Br)cc21	4.74 µM
CC(C)Oc1ccc2c(c1)OCC1Cc3ccccc3OC21 (stereo unspecified)	> 100 µM

Turning to the following compound.
// query Let me know recorded TGI for O=C(O)[C@@H]1CSCN1C(=O)[C@@H]1CCC(=S)N1 , thanks.
// result > 100 µM

---

Tested on: SF-539 CNS
Assay protocol: NCI tumour cell line growth inhibition, 48 h
Value kind: log10 of TGI (log10 of the value in µM)
Remember, log10 of TGI, in µM.

Use the examples below as a reference point.
Compound	Assayed target	log10 of TGI
CCCCOC(=O)NC(=O)c1cn(C2CCCCC2)c(=O)[nH]c1=O	SF-539 CNS	1.58
COC(=O)C(COC(C)=O)NC(=O)/C=C/c1ccc(O)c(OC(C)=O)c1 (stereo unspecified)	SF-539 CNS	1.73
NC(N)=N/N=C/c1c(-c2cccc([N+](=O)[O-])c2)nc2n1CCS2	SF-539 CNS	1.64
CN(/N=C/c1ccc(OCc2cccc(COc3ccc(C=O)cc3)n2)cc1)c1cnn(-c2ccc(Cl)cc2Cl)c(=O)c1Cl	SF-539 CNS	1.67
O=C1/C(=C/c2ccc(O)cc2)CSc2ccc(Cl)cc21	SF-539 CNS	1.50
O=C1C(Cl)C(c2cccc(Cl)c2)N1c1ccc(-n2c(=S)[nH]c3ccccc3c2=O)cc1 (stereo unspecified)	SF-539 CNS	1.74
Cc1ccc(NC(=O)NCCCOc2ccc(N3C(N)=NC(N)=NC3(C)C)cc2Cl)cc1S(=O)(=O)F	SF-539 CNS	1.91
COc1cc2c3c(n(C)c(=O)c2cc1OC)-c1cc2c(cc1/C3=C\CNCCCN)OCO2	SF-539 CNS	0.86
N#C/C(=C\c1cc2ccccc2c2ccccc12)c1ccccc1	SF-539 CNS	1.30

Okay, now this compound:
// query Fill in log10 of TGI for record O=[N+]([O-])c1cccc2nc3ccccc3c(NCCC[N+]3([O-])CCOCC3)c12
// result 0.11

---

Test system: HOP-62 NSCLC
Assay protocol: NCI tumour cell line growth inhibition, 48 h
What TGI was measured for each of the following?

Sample records with TGI:
Compound	Assayed target	Result value
Cc1nc2ccccc2c(=O)n1-c1ccccc1F	HOP-62 NSCLC	> 100 µM
COc1ccc(C2=Nn3c(nnc(Cc4ccc(Cl)cc4)c3=O)SC2)cc1	HOP-62 NSCLC	> 100 µM
c1csc(-c2cc(-c3cccs3)c(-c3ccsc3)s2)c1	HOP-62 NSCLC	> 100 µM

For the 6 compounds below, give their TGI values.
1. Cc1ccc(NC(=O)c2cccc(OP(=O)(O)Nc3ccc(C)cc3)c2)cc1
2. CC(C)(C)c1ccc(O)c(CN(Cc2cc(C(C)(C)C)ccc2O)c2ccccc2)c1
3. O=C1CCCC2(c3ccccc3)Nc3ccccc3N12 (stereo not given)
4. Cc1ccc(NC(=O)NCCCOc2ccc(N3C(N)=NC(N)=NC3(C)C)cc2Cl)cc1S(=O)(=O)F
5. CCN(CC)CCCC(C)Nc1cnc(C(=O)Nc2cccc3ccc(OC)nc23)cn1 (stereo not given)
6. Cc1ccc(/C=C2\CCC/C(=C\c3ccc(O)c(CN4CCCCC4)c3)C2=O)cc1

// result
["> 100 µM", "47.6 µM", "> 100 µM", "> 100 µM", "3.71 µM", "> 51.7 µM"]

// query Please give measured TGI of the following entry: Cc1nn(C(=O)Cc2ccccc2)c2c1C(c1ccc(N(C)C)cc1)SC(N)=N2 (stereo not given)
// result > 100 µM

---

Test system: NCI-H460 lung
Value kind: GI50

Reference set, count: 7
Compound	Result value
COc1cc2c(c(OC)c1OC)C(=O)[C@@H]1c3ccc([N+](=O)[O-])cc3C(=O)N(CCCBr)[C@H]21	8.15 µM
O=C(O)[C@@H]1CCCCN1Cc1cc2cc3c(cc2c2cc(OCc4ccccc4)ccc12)OCO3	1.49 µM
Nc1nc(-c2cccc(Cl)c2)c(-c2ccc3ncccc3n2)s1	> 25 µM
COC(=O)c1c(C)[nH]c(/C=C2\N=C(c3ccc[nH]3)C=C2OC)c1C	0.147 µM
COc1cc2c3c(n(CCCCOC(=O)C(Cl)(Cl)Cl)c(=O)c2cc1OC)-c1cc2c(cc1C3=O)OCO2	2.41 µM
C=C1CC[C@@H]2[C@](C)(COC(C)=O)[C@H](OC(C)=O)CC[C@@]2(C)[C@@H]1CC(Nc1ccc(S(=O)(=O)Nc2ncccn2)cc1)C1=CCOC1=O (stereo partly drawn)	1.98 µM
C=C1C(=O)O[C@H]2[C@H]1CC/C(COC(=O)c1cc3ccccc3s1)=C\CC[C@@]1(C)O[C@@H]21	2.2 µM

Would you kindly look at the next entry?
// query Check the records and state GI50 for COc1ccccc1Cn1cc2c(c1-c1ccccc1)CCc1cnoc1-2
// result 2.65 µM

---

Tested on: MDA-N
Assay protocol: NCI tumour cell line growth inhibition, 48 h
Value kind: TGI

Below, 10 compounds whose answers are already recorded.
Compound	Result value
c1ccc(CSP234N5CCN2CCN3CCN4CC5)c(CSP234N5CCN2CCN3CCN4CC5)c1	82.8 µM
CC1(C)CC(=O)C(/C=N/c2nc(-c3ccccc3)cs2)=C(O)C1	> 100 µM
Cc1ccccc1N=Nc1ccc(N/N=C2/CCCNC2=O)c(C)c1	> 100 µM
Cc1cc(=O)n2nc(CN3CCCCC3)sc2n1	> 100 µM
O=C1OC(c2ccco2)=N/C1=C\c1cccc([N+](=O)[O-])c1	> 100 µM
c1ccc2c(c1)nc1n2CNC1	> 100 µM
CC(C)(C)c1ccc(-c2nc3ccc(Cl)cc3c(=O)o2)cc1	64 µM
CC(C)(C)[Si](C)(C)OCC1OC(n2cc(I)c(N)nc2=O)C(O[Si](C)(C)C(C)(C)C)C1O[Si](C)(C)C(C)(C)C (stereo unspecified)	26.9 µM
Cc1[nH]n(C2=NCCN2)c(=O)c1Cc1ccccc1	> 100 µM
COC(=O)C(NC(=O)c1ccccc1)c1ccco1 (stereo unspecified)	> 100 µM

Now consider the entry below.
// query Consider the compound CNc1nc2n(CCO)c(-c3ccccc3)c(-c3ccccc3)nc-2c(=O)n1 tested on MDA-N; state its TGI.
// result > 50 µM
